- experimental-context: buffer; pH 7.4; 6.0 h; 150.0 µM
property-measured: solubility kinetic (µg/mL)
One number for each entry, in µg/mL.

// batch mode: one solubility kinetic value per listed entry
1. O=C(CCCN1CCC2(CC1)C(=O)N(Cc1cccc(F)c1)CN2c1ccccc1)c1ccc(F)cc1
2. Nc1nc2c(s1)C(c1cc(Cl)ccc1F)CC(=O)N2 (stereo not given)
3. CN(C)[C@@H]1CCN(c2cccc(Nc3nn4c(=O)c5ccccc5nc4s3)c2)C1
4. Cc1ccc2oc(NC3=NC(c4[nH]ncc4Cl)C4=C(CCCC4=O)N3)nc2c1 (stereo not given)

[4.23, 3.78, 18.1, 1.35]
